Where these numbers come from: PubChem BioAssay

experiment: compound effects on differentiated 3T3-L1 adipocyte viability – cell-based, 3T3-L1 adipocytes, calcein-AM fluorescence, 48 h, basal, profiling panel (AID 1163); conditions: 3T3-L1 adipocytes viability, higher = more signal; further: test concentration not given here
Parameter class (string): assigned from measured z-score. Ranges: bin A: < -0.3; bin B: ≥ -0.3 and < 0.8; bin C: ≥ 0.8

The examples below pair each entry with its known result.
O=P(c1ccccc1)(c1ccccc1)N1CC2(CC2)CC(O)(c2ccccc2)C1 (centres undefined)
bin A
COc1cc2c(cc1O)C=[N+](C)CC2
bin B

Field: class (z-score) — entry: C[C@H]1O[C@H]2C3=C(C(=O)[C@@H]4O[C@@H]4[C@@H]3O)[C@@H]1[C@@H]1[C@@H](C)OC=C3[C@@H](O)[C@H]4O[C@H]4C(=O)[C@]312
bin B

Field: class (z-score) — entry: COc1cc2c(cc1O)C(C)N(C)CC2 (centres undefined)
bin C

Field: class (z-score) — entry: CCCc1cc2c(n1Cc1ccco1)C(C)C1CN(C(=O)c3ccccc3)C(C)(C(=O)OC)C21 (centres undefined)
bin B

Field: class (z-score) — entry: C=C(CC1(C(C)NP(=O)(c2ccccc2)c2ccccc2)CC1)c1ccccc1 (centres undefined)
bin C

Field: class (z-score) — entry: CCCC[C@@H]1C[C@H]1[C@@H](NP(=O)(c1ccccc1)c1ccccc1)c1ccc(Cl)cc1
bin A

Field: class (z-score) — entry: OCc1ccc(C2=CC(c3cccs3)N(Cc3cccc(OC(F)(F)F)c3)CC2)cc1 (centres undefined)
bin B

---

Each entry below carries its reported z-score.
experiment: Pseudomonas biofilm growth suppression – PAO1 strain, BacTiter-Glo luminescence, LB-PBS, primary screen (AID 1144); details: P. aeruginosa PAO1 biofilm, 12 h, higher = more signal
// print number alone

# example entries with known answers
C[C@@H]1Cc2c(cnc3c2CN(C)CC3)CO1
-0.181
CCCc1cc2c(n1Cc1ccc(C)cc1)C(C)C1CN(C(=O)c3ccccc3)C(C)(C(=O)OC)C21 (centres undefined)
0.426
CN1CCc2nc(CO)c(CO)cc2C1
0.424
CCCC=C(CCC)[C@@H](NP(=O)(c1ccccc1)c1ccccc1)c1ccccc1
0.168
COC(=O)[C@H]1[C@H](c2ccccc2)C(=O)[C@]2(O)c3ccccc3O[C@@]12c1ccccc1
-1.45
CCCC[C@@H]1C[C@H]1[C@@H](NP(=O)(c1ccccc1)c1ccccc1)c1ccc(Cl)cc1
-0.451

// z-score lookup, key: COC(=O)[C@H]1[C@@H](O)[C@@]2(O)c3c(OC)cc(OC)cc3O[C@@]2(c2ccc(OC)cc2)[C@@H]1c1ccccc1
-0.638

---

experiment: JC-1 mitochondrial signal, unstimulated adipocytes – cell-based, JC-1 fluorescence, 3T3-L1 adipocytes, 24 h, 100 nL compound, profiling panel (AID 1168); settings: JC-1 mitochondrial fluorescence; higher = more signal, called active from +8 up or from −8 down unless noted; further: test concentration not given here
Activity calls are given as the source filed them.
METRIC: z-score

# example entries with known answers
CCCc1cc2c(n1Cc1ccco1)C(C)C1CN(C(=O)c3ccccc3)C(C)(C(=O)OC)C21 (stereo not given)
-1.5 (inactive)
CCCc1cc2c(n1Cc1cccc(Cl)c1)C(C)C1CN(C(=O)c3ccccc3)C(C)(C(=O)OC)C21 (stereo not given)
-1.82 (inactive)
COC(=O)[C@@]1(Cc2ccccc2)[C@H]2c3cc(C(=O)N(C)C)n(C)c3C[C@H]2CN1C(=O)c1ccccc1
-0.078 (inactive)
CCc1cc2c(nc1CC)CCN(CCC(C)=NOC)C2
-1.37 (inactive)
COC(=O)[C@H]1[C@H](c2ccccc2)C(=O)[C@]2(O)c3ccccc3O[C@@]12c1ccccc1
-0.113 (inactive)

// z-score lookup, key: COc1cc2c(cc1O)C(C)N(C)CC2 (stereo not given)
1.27 (inactive)

// z-score lookup, key: COC(=O)[C@@]1(Cc2ccccc2)[C@H]2c3cc(C(=O)N(C)C)[nH]c3C[C@H]2CN1C(=O)c1ccccc1
-0.562 (inactive)

// z-score lookup, key: CCOC(=O)[C@H]1CC=C2C(=O)Oc3ccccc3[C@@H]21
0.846 (inactive)

// z-score lookup, key: C=C(CC1(C(C)NP(=O)(c2ccccc2)c2ccccc2)CC1)c1ccccc1 (stereo not given)
-0.793 (inactive)

// z-score lookup, key: O=P(c1ccccc1)(c1ccccc1)N1CC2(CC2)CC(O)(c2ccccc2)C1 (stereo not given)
-0.654 (inactive)
